All values here come from patent US8324380B2.

- assay-system: GPR73 (prokineticin 1 receptor) (Homo sapiens, UniProt Q8TCW9)
- Construct: expressed in transfected cells; host or cells: HEK 293
- Sequence (Q8TCW9 whole entry, species assumed): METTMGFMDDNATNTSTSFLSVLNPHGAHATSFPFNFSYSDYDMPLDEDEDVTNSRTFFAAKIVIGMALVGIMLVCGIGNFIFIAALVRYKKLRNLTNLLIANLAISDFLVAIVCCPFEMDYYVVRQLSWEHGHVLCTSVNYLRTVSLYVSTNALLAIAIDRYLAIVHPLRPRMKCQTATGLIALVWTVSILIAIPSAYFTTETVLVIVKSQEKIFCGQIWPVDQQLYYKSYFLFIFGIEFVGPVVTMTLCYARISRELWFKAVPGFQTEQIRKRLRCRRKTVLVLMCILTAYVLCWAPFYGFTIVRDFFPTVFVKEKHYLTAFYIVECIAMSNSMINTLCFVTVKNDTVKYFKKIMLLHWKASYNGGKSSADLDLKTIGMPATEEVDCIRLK
- experiment-notes: PK1 functional assay: Ca2+ mobilization on the FLIPR
- Assay type: cell-based
- measurement-parameters: HEK 293 GPR73 cells; read-out: Ca^2+ Mobilization IC50
// NB: equality with 100 nM counts as class 0; only IC50 strictly below is class 1

Worked cases, answers included:
Nc1nccn1CCNc1nc(=O)n(Cc2ccc(F)cc2)c(=O)n1Cc1ccc(OC(F)F)cc1: class 1
NC1=Nc2cc(F)ccc2CN1CCNc1nc(=O)n(Cc2ccc(F)cc2)c(=O)n1Cc1ccc(OC(F)F)cc1: class 1
COc1ccc2c(c1)N=C(N)N(CCNc1nc(=O)n(Cc3ccc(F)cc3)c(=O)n1Cc1ccc(OC(F)F)cc1)C2: class 0
NC1=Nc2cccc(Cl)c2CN1CCNc1nc(=O)n(Cc2ccc(F)cc2)c(=O)n1Cc1ccc(OC(F)(F)F)cc1: class 0

**Q:** In the record for Nc1nc2cc(F)ccc2n1CCNc1nc(=O)n(Cc2ccc(F)cc2)c(=O)n1Cc1ccc(OC(F)F)cc1 , is IC50 less than 100 nM?
**A:** class 1

**Q:** In the record for NC1=Nc2ccc(O)cc2CN1CCNc1nc(=O)n(Cc2ccc(F)cc2)c(=O)n1Cc1ccc(OC(F)F)cc1 , is IC50 less than 100 nM?
**A:** class 0

**Q:** In the record for NC1=Nc2cc(Cl)ccc2CN1CCNc1nc(=O)n(Cc2ccc(F)cc2)c(=O)n1Cc1ccc(OC(F)F)cc1 , is IC50 less than 100 nM?
**A:** class 0

----------
- assay-system: GPR73 (prokineticin 1 receptor) (Homo sapiens)
- Construct: expressed in transfected cells; host or cells: HEK 293
- experiment-notes: PK1 functional assay: Ca2+ mobilization on the FLIPR
- Type: cell-based
- measurement-parameters: HEK 293 GPR73 cells; read-out: Ca^2+ Mobilization IC50
readout-name: IC50 (nM)
# unit: nM | format: bare number

Example cases with answers are listed next.
NC1=Nc2cc(F)ccc2CN1CCNc1nc(=O)n(Cc2ccc(F)cc2)c(=O)n1Cc1ccc(OC(F)(F)F)cc1: 359
COc1ccc(Cn2c(NCCN3Cc4ccccc4N=C3N)nc(=O)n(Cc3ccc(F)cc3)c2=O)cc1: 28
Nc1nc2ccccc2n1CCNc1nc(=O)n(Cc2ccc3c(c2)CCO3)c(=O)n1Cc1ccc(OC(F)F)cc1: 223
Nc1nc2ccc(Cl)cc2n1CCNc1nc(=O)n(Cc2ccc(F)cc2)c(=O)n1Cc1ccc(OC(F)(F)F)cc1: 670
Nc1nc2ccccc2n1CCNc1nc(=O)n(Cc2ccc(F)cc2)c(=O)n1Cc1ccc(OC(F)(F)F)cc1: 104
Nc1ncc(CCNc2nc(=O)n(Cc3ccc(F)cc3)c(=O)n2Cc2ccc(OC(F)F)cc2)[nH]1: 36
Nc1ncc(CCNc2nc(=O)n(Cc3ccc4c(c3)CCO4)c(=O)n2Cc2ccc3c(c2)CCO3)[nH]1: 2420
NC1=Nc2ccc(Cl)cc2CN1CCNc1nc(=O)n(Cc2ccc(F)cc2)c(=O)n1Cc1ccc(OC(F)F)cc1: 111

**Q:** Fill in the blank: the reported IC50 of Nc1nc2cccc(F)c2n1CCNc1nc(=O)n(Cc2ccc(F)cc2)c(=O)n1Cc1ccc(OC(F)F)cc1 is ____.
**A:** 132

**Q:** Fill in the blank: the reported IC50 of COc1ccc(Cn2c(NCCn3c(N)nc4ccccc43)nc(=O)n(Cc3ccc4c(c3)CCO4)c2=O)cc1 is ____.
**A:** 58

**Q:** Fill in the blank: the reported IC50 of COc1ccc(Cn2c(NCCn3c(N)nc4ccccc43)nc(=O)n(Cc3ccc(Cl)cc3)c2=O)cc1 is ____.
**A:** 77

**Q:** Fill in the blank: the reported IC50 of COc1ccc(Cn2c(NCCn3c(N)nc4c(F)cccc43)nc(=O)n(Cc3ccc(F)cc3)c2=O)cc1 is ____.
**A:** 146

**Q:** Fill in the blank: the reported IC50 of COc1ccc(Cn2c(NCCn3c(N)nc4ccc(C)cc43)nc(=O)n(Cc3ccc(F)cc3)c2=O)cc1 is ____.
**A:** 8

----------
- assay-system: GPR73 (prokineticin 1 receptor) (Homo sapiens)
- Construct: expressed in transfected cells; host or cells: HEK 293
- experiment-notes: PK1 functional assay: Ca2+ mobilization on the FLIPR
- Assay type: cell-based
- measurement-parameters: HEK 293 GPR73 cells; read-out: Ca^2+ Mobilization IC50
readout-name: IC50 (nM)
# unit: nM | format: bare number

Nc1nc2ccc(Cl)cc2n1CCNc1nc(=O)n(Cc2ccc(F)cc2)c(=O)n1Cc1ccc(OC(F)F)cc1 [Cpd 30]: 252
CSc1ccc(Cn2c(=O)nc(NCCn3c(N)nc4ccccc43)n(Cc3ccc(OC(F)F)cc3)c2=O)cc1 [Cpd 85]: 157
COc1ccc(Cn2c(NCCc3cnc(N)[nH]3)nc(=O)n(Cc3ccc(SC)cc3)c2=O)cc1 [Cpd 61]: 21
COc1ccc(Cn2c(NCCn3c(N)nc4cc(C(F)(F)F)ccc43)nc(=O)n(Cc3ccc(F)cc3)c2=O)cc1 [Cpd 8]: 163
COc1ccc(Cn2c(NCCc3cnc(N)[nH]3)nc(=O)n(Cc3ccc4c(c3)nnn4C)c2=O)cc1 [Cpd 67]: 171

**Q:** Fill in the blank: the reported IC50 of CCc1ccc(Cn2c(=O)nc(NCCc3cnc(N)[nH]3)n(Cc3ccc(OC(F)F)cc3)c2=O)cc1 [Cpd 81] is ____.
**A:** 502

**Q:** Fill in the blank: the reported IC50 of Nc1nc2ccc(F)c(F)c2n1CCNc1nc(=O)n(Cc2ccc(F)cc2)c(=O)n1Cc1ccc(OC(F)F)cc1 [Cpd 29] is ____.
**A:** 406

----------
# key: entry, value: log10(IC50)
- assay-system: GPR73 (prokineticin 1 receptor) (Homo sapiens)
- Construct: expressed in transfected cells; host or cells: HEK 293
- experiment-notes: PK1 functional assay: Ca2+ mobilization on the FLIPR
- Assay type: cell-based
- measurement-parameters: HEK 293 GPR73 cells; read-out: Ca^2+ Mobilization IC50
Lab note - IC50 converted to log10 from values in nM.

CCc1ccc(Cn2c(=O)nc(NCCn3c(N)nc4ccccc43)n(Cc3ccc4c(c3)CCO4)c2=O)cc1: 2.71
COc1ccc(Cn2c(NCCc3cnc(N)[nH]3)nc(=O)n(Cc3ccc(F)cc3)c2=O)cc1: 1.68

**Q:** What measured log10(IC50) is associated with Nc1nc2cc(C(F)(F)F)ccc2n1CCNc1nc(=O)n(Cc2ccc(F)cc2)c(=O)n1Cc1ccc(OC(F)(F)F)cc1 on GPR73 (prokineticin 1 receptor) (Homo sapiens)?
**A:** 3.70

**Q:** What measured log10(IC50) is associated with COc1ccc(Cn2c(NCCn3c(N)nc4ccccc43)nc(=O)n(Cc3ccc(Cl)c(Cl)c3)c2=O)cc1 on GPR73 (prokineticin 1 receptor) (Homo sapiens)?
**A:** 1.82

**Q:** What measured log10(IC50) is associated with COc1ccc(Cn2c(NCCn3c(N)nc4ccccc43)nc(=O)n(Cc3ccc(SC)cc3)c2=O)cc1 on GPR73 (prokineticin 1 receptor) (Homo sapiens)?
**A:** 1.34

**Q:** What measured log10(IC50) is associated with COc1ccc(Cn2c(NCCn3c(N)nc4cc(F)ccc43)nc(=O)n(Cc3ccc(F)cc3)c2=O)cc1 on GPR73 (prokineticin 1 receptor) (Homo sapiens)?
**A:** 1.84

**Q:** What measured log10(IC50) is associated with Cn1nnc2cc(Cn3c(=O)nc(NCCn4c(N)nc5ccccc54)n(Cc4ccc5c(c4)CCO5)c3=O)ccc21 on GPR73 (prokineticin 1 receptor) (Homo sapiens)?
**A:** 1.82

**Q:** What measured log10(IC50) is associated with CCc1ccc(Cn2c(=O)nc(NCCn3c(N)nc4ccccc43)n(Cc3ccc(OC)cc3)c2=O)cc1 on GPR73 (prokineticin 1 receptor) (Homo sapiens)?
**A:** 1.95

**Q:** What measured log10(IC50) is associated with Nc1nc2ccccc2n1CCNc1nc(=O)n(Cc2ccc(Cl)c(Cl)c2)c(=O)n1Cc1ccc(OC(F)F)cc1 on GPR73 (prokineticin 1 receptor) (Homo sapiens)?
**A:** 2.54

**Q:** What measured log10(IC50) is associated with Nc1nc2cc(C(F)(F)F)ccc2n1CCNc1nc(=O)n(Cc2ccc(F)cc2)c(=O)n1Cc1ccc(OC(F)F)cc1 on GPR73 (prokineticin 1 receptor) (Homo sapiens)?
**A:** 2.49

**Q:** What measured log10(IC50) is associated with NC1=Nc2ccc(Cl)cc2CN1CCNc1nc(=O)n(Cc2ccc(F)cc2)c(=O)n1Cc1ccc(OC(F)(F)F)cc1 on GPR73 (prokineticin 1 receptor) (Homo sapiens)?
**A:** 2.37

**Q:** What measured log10(IC50) is associated with Nc1nc2ccccc2n1CCNc1nc(=O)n(Cc2ccc3c(c2)CCO3)c(=O)n1Cc1ccc2c(c1)CCO2 on GPR73 (prokineticin 1 receptor) (Homo sapiens)?
**A:** 2.35

**Q:** What measured log10(IC50) is associated with Nc1ncc(CCNc2nc(=O)n(Cc3ccc(Cl)c(Cl)c3)c(=O)n2Cc2ccc3c(c2)CCO3)[nH]1 on GPR73 (prokineticin 1 receptor) (Homo sapiens)?
**A:** 3.30
